Assay summary: qHTS for differential inhibitors of proliferation of Plasmodium falciparum line Dd2 (AID 1882); further: nearly all actives have a fitted effect of over 65% in size
Condition parameters: Plasmodium falciparum Dd2 proliferation inhibition; series mostly up to 28.7 µM
Inconclusive results are not listed. Activity calls are given as the source filed them. The call rests on the fitted dose curve; in most records, active means well fitted inhibition curve with a large enough effect; inconclusive means small, poorly fitted or top-dose-only effect; inactive means flat fitted curve, though single readings scatter.
Your reply should match one of these outcome classes. active, inactive

Query string: Recorded test outcome, item CC(=O)C(C)=O
Result string: inactive

Query string: Which outcome was entered for the molecule N[C@H](C(=O)O)[C@H](O)C(=O)O in this test?
Result string: inactive

Query string: Dear colleague, could you share the recorded outcome for C#CC(N)CCC(=O)O (stereo unspecified) when you have a moment?
Result string: inactive

Query string: Identify the outcome logged in this assay for the molecule shown: NC(=O)c1cc[n+](CC2=C(C(=O)O)N3C(=O)[C@@H](NC(=O)[C@@H](c4ccccc4)S(=O)(=O)[O-])[C@H]3SC2)cc1
Result string: inactive

Query string: What classification did CCCCCCCCCCCCCCSCC(=O)O end up with in this test?
Result string: inactive

Query string: Outcome? COc1ccc(NC(=O)c2ccc(-c3ccc(-c4noc(C)n4)cc3C)cc2)cc1N1CCN(C)CC1
Result string: active
